target: T1, human immunoglobulin E (hIgE) (human, UniProt P01854-1 1-428); experiment: SPR (Biacore), pH 7.4
T1 construct: also called human IgE; Native IgE (Abcam)
T1 sequence (P01854 whole entry): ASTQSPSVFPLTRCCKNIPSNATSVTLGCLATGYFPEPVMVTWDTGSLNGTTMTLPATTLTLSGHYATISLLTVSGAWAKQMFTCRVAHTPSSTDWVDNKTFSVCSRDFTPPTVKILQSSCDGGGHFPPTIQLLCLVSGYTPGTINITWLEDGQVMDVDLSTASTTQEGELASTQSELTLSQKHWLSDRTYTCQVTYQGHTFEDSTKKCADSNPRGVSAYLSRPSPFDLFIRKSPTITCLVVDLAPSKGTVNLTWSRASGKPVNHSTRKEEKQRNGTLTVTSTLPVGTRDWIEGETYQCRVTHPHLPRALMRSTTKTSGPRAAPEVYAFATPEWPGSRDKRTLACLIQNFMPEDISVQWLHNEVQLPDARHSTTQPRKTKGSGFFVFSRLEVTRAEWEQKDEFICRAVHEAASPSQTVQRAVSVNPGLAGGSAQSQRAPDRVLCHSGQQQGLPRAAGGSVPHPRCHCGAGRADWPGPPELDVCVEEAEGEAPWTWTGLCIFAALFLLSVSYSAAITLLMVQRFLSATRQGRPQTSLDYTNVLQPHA
Observation type: kon (M⁻¹ s⁻¹)
One number for each entry, in M⁻¹ s⁻¹.

-- ask Bench note: what kon did Oma VH15W100b - VL3D28H (antibody, V domains shown, also called Oma VH15W100b VL3D25H) VH: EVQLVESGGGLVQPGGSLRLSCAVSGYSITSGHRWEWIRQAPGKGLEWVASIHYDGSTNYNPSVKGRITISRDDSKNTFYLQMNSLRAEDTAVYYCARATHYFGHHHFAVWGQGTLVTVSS VL: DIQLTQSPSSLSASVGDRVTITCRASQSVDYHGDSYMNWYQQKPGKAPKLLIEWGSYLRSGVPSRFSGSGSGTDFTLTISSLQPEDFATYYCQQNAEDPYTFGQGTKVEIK show?
-- reply 213000

Data origin: patent US20220177604A1
